target entity: Alpha-Synuclein Protofibril binding to purified human brain membranes (Homo sapiens, UniProt P37840)
assay remarks: Inhibition of protofibrillar alpha-synuclein binding to purified human brain cell membranes (ELISA)
condition set: Alpha-Synuclein/Membrane Activity (IC-50), alpha-synuclein protofibrils
pIC50: −log10 of the molar value.
Rule: pIC50 of 5 or more gives label 1; anything lower gives label 0.

Threshold query (pIC50 >= 5) on Fc1ccc2c(N/N=C/c3ccc(CN4CCOCC4)cc3)ccnc2c1 [Compound 6]
label 1

Threshold query (pIC50 >= 5) on CCN1CCN(c2ccc(Nc3ccnc4cc5ccccc5cc34)cc2)CC1 [Compound 39]
label 0

Threshold query (pIC50 >= 5) on CN1CCN(Cc2ccc(/C=N/Nc3ccnc4cc(Cl)ccc34)cc2)CC1 [Compound 7]
label 0
